Biological target: CLK3 (Mus musculus, UniProt O35492)
Sequence (O35492 whole entry): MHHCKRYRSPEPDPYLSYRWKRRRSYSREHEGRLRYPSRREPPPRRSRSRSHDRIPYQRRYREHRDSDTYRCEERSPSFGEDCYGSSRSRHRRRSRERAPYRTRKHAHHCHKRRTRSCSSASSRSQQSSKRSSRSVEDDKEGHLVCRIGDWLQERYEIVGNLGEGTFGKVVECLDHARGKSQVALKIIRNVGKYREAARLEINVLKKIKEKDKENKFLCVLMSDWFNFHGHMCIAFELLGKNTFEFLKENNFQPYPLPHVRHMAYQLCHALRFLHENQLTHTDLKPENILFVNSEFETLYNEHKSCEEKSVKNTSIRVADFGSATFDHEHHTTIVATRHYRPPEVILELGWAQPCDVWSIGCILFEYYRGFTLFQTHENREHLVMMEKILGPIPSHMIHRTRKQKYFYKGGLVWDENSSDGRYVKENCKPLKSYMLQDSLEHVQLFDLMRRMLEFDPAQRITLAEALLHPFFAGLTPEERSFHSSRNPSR
Assay: Protein kinase assay ([γ-33P]-ATP, RS peptide substrate), CLK3
Assay type: biochemical
Conditions: 10 µM compound, compared to controls; read-out: Residual Activity at 10 µM CLK3
Task for the reader: assign each of the following compounds its reported remaining activity at 10 µM.
Your answer should be a plain number; it is taken to be in %.

State the recorded remaining activity at 10 µM for this entry: Cn1cc(C#N)c2cccc(Cl)c21 [Compound 13c]
97

Continue with Cc1cccc2c(C#N)c(-c3ccccc3)[nH]c12
124

Continue with N#Cc1cn(Cc2ccccc2)c2c(Cl)cccc12 [Compound 13a]
127

Continue with N#Cc1c(-c2ccc(Cl)cc2)[nH]c2c(I)cccc12
130

---

Task for the reader: assign each of the following molecules its reported pIC50.
Target: DYRK1B (Homo sapiens)
Sequence (Q9Y463 whole entry): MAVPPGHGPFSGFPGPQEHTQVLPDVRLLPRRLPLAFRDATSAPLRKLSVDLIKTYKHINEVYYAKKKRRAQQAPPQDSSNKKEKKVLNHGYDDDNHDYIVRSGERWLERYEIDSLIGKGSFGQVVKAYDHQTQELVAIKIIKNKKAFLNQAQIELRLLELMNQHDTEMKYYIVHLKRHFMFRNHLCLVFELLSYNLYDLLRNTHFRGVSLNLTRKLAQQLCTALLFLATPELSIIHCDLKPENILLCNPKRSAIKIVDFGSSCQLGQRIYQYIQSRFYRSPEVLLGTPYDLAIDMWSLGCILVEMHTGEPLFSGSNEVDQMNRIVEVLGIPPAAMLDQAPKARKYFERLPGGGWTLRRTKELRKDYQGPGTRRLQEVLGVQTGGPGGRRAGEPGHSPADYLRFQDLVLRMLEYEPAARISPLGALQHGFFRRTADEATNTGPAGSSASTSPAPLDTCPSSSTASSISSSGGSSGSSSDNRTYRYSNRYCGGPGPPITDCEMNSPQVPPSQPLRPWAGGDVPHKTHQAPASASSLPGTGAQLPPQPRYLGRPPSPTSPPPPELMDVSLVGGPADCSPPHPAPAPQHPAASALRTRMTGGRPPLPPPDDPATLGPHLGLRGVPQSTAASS
// field semantics: pIC50 = negative decimal log of concentration (mol/L)

State the recorded pIC50 for this entry: N#Cc1c(-c2ccccc2)[nH]c2c(Br)cccc12
6.92

Continue with Cn1c(-c2ccccc2)c(C#N)c2cccc(I)c21 [Compound 13f]
5.68

Continue with N#Cc1c(C2CC2)[nH]c2c(I)cccc12
6.30

Continue with CC(C)c1[nH]c2c(I)cccc2c1C#N
6.28

Continue with COc1cccc(-c2[nH]c3c(I)cccc3c2C#N)c1
6.20

Continue with N#Cc1c(-c2ccccc2)[nH]c2ccccc12
5.22

Continue with Cn1c(-c2ccccc2)c(C#N)c2cccc(Br)c21 [Compound 13e]
5.00

Continue with N#Cc1c(-c2ccccc2)[nH]c2c(I)cccc12
6.24

Continue with N#Cc1c(CC(O)CO)[nH]c2c(Cl)cccc12 (stereo not drawn)
5.38

---

Task for the reader: assign each of the following compounds its reported LLE.
Biological target: DYRK1A (Homo sapiens)
Assay: Ligand-lipophilicity efficiency (pIC50 minus calculated logP)
Details: Table S2
// response body must contain only the number

State the recorded LLE for this entry: Cn1c(-c2ccccc2)c(C#N)c2cccc(I)c21 [Compound 13f]
1.54

Continue with N#Cc1c(-c2ccccc2)[nH]c2ccccc12
2.90

Continue with N#Cc1c(CC(O)CO)[nH]c2c(Cl)cccc12 (centres unmarked)
4.59

Continue with N#Cc1c(C2CC2)[nH]c2c(I)cccc12
3.37

Continue with N#Cc1c(-c2cccnc2)[nH]c2c(I)cccc12
3.89

Continue with N#Cc1c(CCC2OCCCO2)[nH]c2c(Cl)cccc12
2.57

Continue with N#Cc1c(-c2ccccc2)[nH]c2c(Br)cccc12
3.34

Continue with Cn1cc(C#N)c2cccc(Br)c21 [Compound 13d]
2.80

Continue with COc1cccc(-c2[nH]c3c(I)cccc3c2C#N)c1
2.41

Continue with N#Cc1c(C2CCCC2)[nH]c2c(I)cccc12
2.78

Continue with Cn1c(-c2ccccc2)c(C#N)c2cccc(Br)c21 [Compound 13e]
1.15

Continue with COc1ccc(-c2[nH]c3c(I)cccc3c2C#N)cc1
2.36

Continue with C=CCc1[nH]c2c(Cl)cccc2c1C#N
2.77

Continue with CC(C)c1[nH]c2c(I)cccc2c1C#N
2.61

---

Task for the reader: assign each of the following compounds its reported remaining activity at 10 µM.
Biological target: CLK4 (Mus musculus)
Sequence (O35493 whole entry): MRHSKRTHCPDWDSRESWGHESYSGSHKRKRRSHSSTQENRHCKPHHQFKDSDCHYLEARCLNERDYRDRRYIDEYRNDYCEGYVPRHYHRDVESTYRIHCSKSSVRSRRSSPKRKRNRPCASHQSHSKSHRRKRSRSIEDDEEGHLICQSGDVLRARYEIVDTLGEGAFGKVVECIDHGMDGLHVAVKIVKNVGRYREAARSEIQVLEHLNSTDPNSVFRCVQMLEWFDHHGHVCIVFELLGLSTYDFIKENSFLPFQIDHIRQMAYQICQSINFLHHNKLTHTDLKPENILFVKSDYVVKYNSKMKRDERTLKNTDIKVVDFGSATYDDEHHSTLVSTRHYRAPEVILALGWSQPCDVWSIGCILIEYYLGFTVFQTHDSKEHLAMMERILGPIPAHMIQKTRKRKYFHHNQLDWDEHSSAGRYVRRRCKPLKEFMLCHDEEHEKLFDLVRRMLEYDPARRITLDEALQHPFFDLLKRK
Assay: Protein kinase assay ([γ-33P]-ATP, RS peptide substrate), CLK4
Format: biochemical
Details: 10 µM compound, compared to controls; read-out: Residual Activity at 10 µM CLK4
Your answer should be a plain number; it is taken to be in %.

State the recorded remaining activity at 10 µM for this entry: N#Cc1cn(Cc2ccccc2)c2c(Cl)cccc12 [Compound 13a]
84

Continue with Cc1cccc2c(C#N)c(-c3ccccc3)[nH]c12 [Compound 6e]
43

Continue with Cn1cc(C#N)c2cccc(Cl)c21 [Compound 13c]
30

Continue with N#Cc1c(-c2ccc(Cl)cc2)[nH]c2c(I)cccc12 [Compound 6m]
36
